Test: Selectivity for F9a over thrombin
measured_parameter: Selectivity ratio

INSERT INTO assay_data (smiles_structure, quantitative_result) VALUES
  ('N=C(N)c1ccc2[nH]c(-c3cccc(-c4ccccc4)c3O)nc2c1', 247),
  ('Oc1c(-c2nc3cc[nH]cc-3n2)n[nH]c1-c1ccccc1', 0.72),
  ('N=C(N)c1ccc(NC(=O)c2[nH]nc(-c3ccccc3)c2O)cc1', 1),
  ('N=C(N)c1ccc2[nH]c(-c3n[nH]c(-c4ccccc4)c3O)nc2c1', 813);
